All values here come from patent US4560689A.

# MEASUREMENT TARGET: benzodiazepine receptor
# MEASUREMENT PROTOCOL: in vitro benzodiazepine receptor binding assay (tritiated diazepam displacement)
# CONDITIONS: inhibition of specific binding of 2 nM tritiated diazepam, membranes from rat fore-brain, 0°-5°, 30 minutes, pH 7.5
pIC50: −log10 of the molar value. Where a name gives a salt, the structure may show the parent alone.
MEASUREMENT KIND: pIC50

Solved entries:
O=c1c2c[nH]c3ccncc3c-2nn1-c1cccnc1 [Example 5a, hydrochloride] ... ~8.52
O=c1c2c[nH]c3sccc3c-2nn1-c1ccc(Cl)cc1 [Example 9, hydrate] ... ~8.05

// next item, pIC50 requested
*Q* I have this compound here, "O=c1c2c[nH]c3ccncc3c-2nn1-c1ccc(Cl)cc1" , and I need its recorded pIC50.
*A* ~9.70
